Molecular target: T1, HSP70 (human HSP70; the antigen of the binning, humanization and variant binding assays) (human, UniProt P0DMV8 1-641, limits assumed)
T1 construct: also called hu HSP70
T1 sequence (P0DMV8 whole entry, change not shown): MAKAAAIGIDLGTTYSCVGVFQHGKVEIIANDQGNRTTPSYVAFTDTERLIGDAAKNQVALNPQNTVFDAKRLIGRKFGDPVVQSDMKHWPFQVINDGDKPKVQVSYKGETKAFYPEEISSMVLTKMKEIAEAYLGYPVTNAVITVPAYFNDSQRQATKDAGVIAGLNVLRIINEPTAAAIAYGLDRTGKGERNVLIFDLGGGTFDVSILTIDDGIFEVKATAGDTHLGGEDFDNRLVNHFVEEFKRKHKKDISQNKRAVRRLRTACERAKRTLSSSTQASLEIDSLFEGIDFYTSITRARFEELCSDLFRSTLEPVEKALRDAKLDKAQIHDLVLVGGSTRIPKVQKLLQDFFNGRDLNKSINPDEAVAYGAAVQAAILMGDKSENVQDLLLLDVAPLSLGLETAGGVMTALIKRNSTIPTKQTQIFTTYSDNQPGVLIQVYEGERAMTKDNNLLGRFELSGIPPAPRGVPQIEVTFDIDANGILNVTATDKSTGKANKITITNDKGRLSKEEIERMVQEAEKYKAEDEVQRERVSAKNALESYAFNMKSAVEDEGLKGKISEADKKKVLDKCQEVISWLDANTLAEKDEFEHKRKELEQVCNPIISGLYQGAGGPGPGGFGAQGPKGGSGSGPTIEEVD
Assay: BLI, anti-human Fc capture, antigen dilution series, 1:1 fit
Measurement name: kon (M⁻¹ s⁻¹)
Reply with just the number (in M⁻¹ s⁻¹).

1. h77A-1.8 (antibody, V domains shown, captured by anti-human Fc) VH: QIQLVQSGAEVKKPGASVKVSCKASGYTFTNYGMNWVRQAPGQGLEWMGWINTYTGEPTYADDFKGRFTFTTDTSTSTAYMELRSLRSDDTAVYFCARYDHAMDYWGQGTLVTVSS VL: EIVLTQSPDSLAVSLGERATIKCKSSQSLLNSGTRKNYLAWYQQKAGQSPKLLIYWTSTRESGVPDRFSGSGSGTDFTLTIDSLQAEDVAVYYCKQSYTLYTFGGGTKVEIK : 54800
2. h77A-1.18 (antibody, V domains shown, captured by anti-human Fc) VH: QIQLVQSGAEVKKPGASVKVSCKASGYTFTNYGMNWVRQAPGQGLEWMGWINTYTGEPTYADDFKGRFTFTTDTSTRTAYMELRSLRSDDTAVYFCARYDHAMDYWGQGTLVTVSS VL: EIVLTQSPDSLAVSLGERATINCKSSQSLLNSGTRKNYLAWYQQKAGQSPKLVIYWTSTRESGVPDRFSGSGSGTDFTLTIDSLQAEDVAVYYCKQSYTLYTFGGGTKVEIK : 63200

The measured kon associated with h77A-1.30 (antibody, V domains shown, captured by anti-human Fc) VH: QIQLVQSGAEVKKPGASVKVSCKASGYTFTNYGMNWVRQAPGQGLEWMGWINTYTGEPTYADDFKGRFTFTTDTSTSTAYMEVRSLRSDDTAVYFCARYDHAMDYWGQGTLVTVSS VL: EIVLTQSPDSLAVSLGERATINCKSSQSLLNSGTRKNYLAWYQQKAGQSPKLIIYWTSTRESGVPDRFSGSGSGTDFTLTIDSLQAEDVAVYYCKQSYTLYTFGGGTKVEIK reads 56700
